Source listed as paper PMC8567874.

- PROTOCOL_TEXT: In situ single-pass rat intestinal perfusion
- Type: in vivo
- ASSAY_SETUP: rat, outlet intestinal perfusate, other: in situ single-pass intestinal perfusion, 100 μg/mL, rat intestinal perfusion, 30 min; read-out: Outlet concentration of PMX (Cout)
VALUE_KIND: concentration at 30 min (µg/mL)
State the answer as a number, implicitly in µg/mL.

stdin: I'd like to know its concentration at 30 min. The compound in question is "Nc1nc2[nH]cc(CCc3ccc(C(=O)N[C@@H](CCC(=O)O)C(=O)O)cc3)c2c(=O)[nH]1"
stdout: 93.2

----------
- PROTOCOL_TEXT: In vivo pharmacokinetic study in rats
- Design: species or system Sprague–Dawley (SD) rats
- ASSAY_SETUP: Sprague-Dawley, rat, plasma, oral, 20 mg/kg PMX
VALUE_KIND: AUC(0-inf) (ng·h/mL)
State the answer as a number, implicitly in ng·h/mL.

stdin: I'd like to know its AUC(0-inf). The compound in question is "Nc1nc2[nH]cc(CCc3ccc(C(=O)N[C@@H](CCC(=O)O)C(=O)O)cc3)c2c(=O)[nH]1"
stdout: 8960
